# measurement-target: Gal(b1-4)GlcNAc(b1-3)Gal(b1-4)GlcNAc(b1-3)Gal(b1-4)GlcNAc(b1-3)Gal(b1-4)GlcNAc(b1-3)Gal(b1-4)GlcNAc(b1-2)Man(a1-3)[Gal(b1-4)GlcNAc(b1-3)Gal(b1-4)GlcNAc(b1-3)Gal(b1-4)GlcNAc(b1-3)Gal(b1-4)GlcNAc(b1-3)Gal(b1-4)GlcNAc(b1-2)Man(a1-6)]Man(b1-4)GlcNAc(b1-4)[Fuc(a1-6)]GlcNAc
# protocol-details: glycan array binding signal (z-score within array); higher = stronger binding
# conditions: glycan notation: IUPAC condensed, linker removed
Only a selection was taken, and the strongest signals are over-represented in it overall.
Listing: glycan array binding signal (z-score) of selected binders
Just the number, please, no unit attached.

Solved entries:
INSERT INTO results (binder, property_label, numeric_readout) VALUES
  ('Gal 9 (Homo sapiens), O00182 (protein) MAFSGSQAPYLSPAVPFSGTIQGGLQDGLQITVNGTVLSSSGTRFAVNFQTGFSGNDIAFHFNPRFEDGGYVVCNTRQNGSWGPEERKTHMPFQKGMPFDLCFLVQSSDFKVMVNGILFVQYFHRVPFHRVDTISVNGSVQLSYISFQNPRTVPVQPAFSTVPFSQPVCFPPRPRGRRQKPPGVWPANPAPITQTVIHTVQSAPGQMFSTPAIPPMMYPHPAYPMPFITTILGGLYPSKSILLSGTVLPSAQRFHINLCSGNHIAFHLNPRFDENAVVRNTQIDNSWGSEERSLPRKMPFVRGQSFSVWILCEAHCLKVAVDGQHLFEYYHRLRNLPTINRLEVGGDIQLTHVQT', 'glycan array binding signal (z-score)', 4.2),
  ('Mermaid1 (Stilbonema majum) (protein) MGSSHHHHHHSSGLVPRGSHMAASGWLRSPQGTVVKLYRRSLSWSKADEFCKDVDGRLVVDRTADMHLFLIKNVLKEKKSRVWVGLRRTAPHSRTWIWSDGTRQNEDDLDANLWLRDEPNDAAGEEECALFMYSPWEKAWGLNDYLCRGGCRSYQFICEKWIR', 'glycan array binding signal (z-score)', -0.28),
  ('LBL-152 (Laetiporus bicolor), B0D650 (protein) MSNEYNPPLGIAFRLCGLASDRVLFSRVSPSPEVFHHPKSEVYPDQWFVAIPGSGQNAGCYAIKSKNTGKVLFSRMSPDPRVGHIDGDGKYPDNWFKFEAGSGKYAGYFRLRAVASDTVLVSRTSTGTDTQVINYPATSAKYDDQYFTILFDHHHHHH', 'glycan array binding signal (z-score)', 9.73);

We next turn to a different binder, shown below.
[ask] Entry Sebin1 (Coprinopsis cinerea), A8PEE3 (protein) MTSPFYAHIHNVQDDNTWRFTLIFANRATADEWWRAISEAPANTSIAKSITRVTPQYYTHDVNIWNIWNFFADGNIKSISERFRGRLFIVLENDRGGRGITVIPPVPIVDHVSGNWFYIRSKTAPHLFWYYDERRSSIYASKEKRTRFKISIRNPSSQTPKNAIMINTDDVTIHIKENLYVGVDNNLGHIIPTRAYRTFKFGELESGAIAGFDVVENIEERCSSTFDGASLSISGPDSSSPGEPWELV : reported glycan array binding signal (z-score) = ?
[reply] 2.62
